- system name: receptor binding domain (RBD) of SARS-CoV-2 delta variant (B.1.617.2) (SARS-CoV-2), P0DTC2
observation type: pKd
The read-out pKd is expressed as -log10 of concentration in moles per litre.

input: Quick check: pKd of EEQAKTFLDKFNHEAEDLFYQSSGLGKGDFR (modifications not checked) [p6 peptide] ?
output: 6.72

All figures here come from patent US20250250312A1.
